target: BRD4(1) (Homo sapiens, UniProt O60885); experiment: BRD4(1) biochemical alphascreen assay (disruption of BRD4(1) binding to acetylated biotin-histone 4 peptide); set-up: BRD4-BD1 (49–170, BPS Bio #31042) was stored at −80 °C; purchased BPS Bio 31042; conditions: alpha screen, average, 9 concentrations in triplicate (n = 3); read-out: IC50 against BRD4(1)
Reported Endpoint: IC50 (µM)
Only the number, expressed in µM, is required.

Task: What IC50 value was documented for this compound, c1nc(NCCCN2CCOCC2)c2c3c(sc2n1)CCC3 [compound 0012] ?
Result: 17

----------
target: UniProt:P00533; test: EGFR kinase activity enzyme assay (radioisotope filter binding, hotspot); type: biochemical; conditions: radioisotope filter binding assay, substrate concentration 10 μM, n = 3; read-out: IC50 against EGFR kinase
Sequence (P00533 25-1210): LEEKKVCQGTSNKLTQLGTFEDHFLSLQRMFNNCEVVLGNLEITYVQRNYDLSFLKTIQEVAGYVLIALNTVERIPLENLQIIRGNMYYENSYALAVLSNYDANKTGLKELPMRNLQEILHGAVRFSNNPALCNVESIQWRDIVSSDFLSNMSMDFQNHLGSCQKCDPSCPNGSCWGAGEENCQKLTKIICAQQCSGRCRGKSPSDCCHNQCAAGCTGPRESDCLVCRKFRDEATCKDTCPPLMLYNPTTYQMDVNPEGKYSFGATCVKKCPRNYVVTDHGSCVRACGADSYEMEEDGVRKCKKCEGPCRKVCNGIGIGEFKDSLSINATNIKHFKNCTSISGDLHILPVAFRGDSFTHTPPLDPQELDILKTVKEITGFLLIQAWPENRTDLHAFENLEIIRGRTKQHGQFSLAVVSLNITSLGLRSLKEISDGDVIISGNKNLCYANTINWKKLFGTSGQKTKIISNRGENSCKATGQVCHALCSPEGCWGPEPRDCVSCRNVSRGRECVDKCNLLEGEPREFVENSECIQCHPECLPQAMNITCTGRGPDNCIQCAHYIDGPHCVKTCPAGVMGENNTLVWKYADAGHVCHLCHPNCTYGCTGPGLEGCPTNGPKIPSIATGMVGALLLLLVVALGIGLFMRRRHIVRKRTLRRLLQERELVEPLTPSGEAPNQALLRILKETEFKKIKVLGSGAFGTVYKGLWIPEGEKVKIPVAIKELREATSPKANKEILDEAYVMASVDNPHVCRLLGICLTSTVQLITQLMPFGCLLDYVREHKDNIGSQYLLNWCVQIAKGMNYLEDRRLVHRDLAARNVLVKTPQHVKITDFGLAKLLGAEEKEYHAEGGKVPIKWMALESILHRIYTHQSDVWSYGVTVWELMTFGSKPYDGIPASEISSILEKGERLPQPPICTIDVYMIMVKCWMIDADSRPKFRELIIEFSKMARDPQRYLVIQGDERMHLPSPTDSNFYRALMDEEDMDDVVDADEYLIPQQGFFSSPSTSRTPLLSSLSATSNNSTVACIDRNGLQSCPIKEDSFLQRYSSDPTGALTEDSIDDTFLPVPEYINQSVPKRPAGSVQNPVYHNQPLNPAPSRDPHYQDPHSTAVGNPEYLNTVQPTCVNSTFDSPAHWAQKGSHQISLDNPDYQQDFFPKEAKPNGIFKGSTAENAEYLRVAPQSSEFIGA
Reported Endpoint: pIC50
In textbook form, pIC50 equals minus log to base ten of the concentration in mol/L.

Task: pIC50 for COc1cc2ncnc(NCCOc3ccccc3F)c2cc1OC [compound 2870] ?
Result: 7.36

----------
biological target: ERBB2 (Homo sapiens, UniProt P04626)
Sequence (P04626 23-1255): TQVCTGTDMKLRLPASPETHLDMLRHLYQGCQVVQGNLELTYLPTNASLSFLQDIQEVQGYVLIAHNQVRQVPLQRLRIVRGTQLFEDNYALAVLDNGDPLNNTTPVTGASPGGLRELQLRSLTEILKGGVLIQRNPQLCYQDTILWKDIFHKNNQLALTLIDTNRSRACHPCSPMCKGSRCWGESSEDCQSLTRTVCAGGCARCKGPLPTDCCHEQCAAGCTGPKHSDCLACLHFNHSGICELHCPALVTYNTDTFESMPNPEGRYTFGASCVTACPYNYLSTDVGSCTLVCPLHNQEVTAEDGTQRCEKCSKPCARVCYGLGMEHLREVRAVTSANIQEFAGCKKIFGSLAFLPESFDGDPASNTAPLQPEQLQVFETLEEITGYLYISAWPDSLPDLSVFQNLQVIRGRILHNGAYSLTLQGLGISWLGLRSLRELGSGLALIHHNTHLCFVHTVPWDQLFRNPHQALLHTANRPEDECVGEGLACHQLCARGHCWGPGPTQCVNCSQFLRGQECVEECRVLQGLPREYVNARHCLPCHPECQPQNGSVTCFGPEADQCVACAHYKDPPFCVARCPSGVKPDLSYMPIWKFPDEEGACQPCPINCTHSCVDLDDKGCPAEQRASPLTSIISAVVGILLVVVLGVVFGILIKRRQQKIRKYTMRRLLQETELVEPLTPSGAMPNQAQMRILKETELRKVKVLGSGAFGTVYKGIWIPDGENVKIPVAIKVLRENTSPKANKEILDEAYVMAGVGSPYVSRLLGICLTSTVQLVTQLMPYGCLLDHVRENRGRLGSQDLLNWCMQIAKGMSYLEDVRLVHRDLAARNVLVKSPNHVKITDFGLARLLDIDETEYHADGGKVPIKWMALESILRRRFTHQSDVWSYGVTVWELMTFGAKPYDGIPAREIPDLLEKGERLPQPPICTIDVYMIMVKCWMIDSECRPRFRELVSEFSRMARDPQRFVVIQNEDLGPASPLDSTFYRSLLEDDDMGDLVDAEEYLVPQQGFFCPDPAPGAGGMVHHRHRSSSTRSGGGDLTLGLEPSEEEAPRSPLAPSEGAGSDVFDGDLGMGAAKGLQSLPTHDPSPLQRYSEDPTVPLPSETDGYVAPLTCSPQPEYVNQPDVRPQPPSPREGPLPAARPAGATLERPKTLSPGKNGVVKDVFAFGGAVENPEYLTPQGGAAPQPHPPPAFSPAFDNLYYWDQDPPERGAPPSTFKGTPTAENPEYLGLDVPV
Reported Endpoint: pIC50
API: returns pIC50 as number; meaning -log10 of concentration in mol/L.

Task: Form field - read-out: pIC50; system: ERBB2 (Homo sapiens, UniProt P04626); submitted item: `COc1cc2ncnc(NCCOc3ccccc3F)c2cc1OC`
Result: 5.06
